# Tested on: Abutilon theophrasti
# method: Herbicidal activity against Abutilon theophrasti (velvetleaf) at 250 g/ha after 2 weeks
# Type: functional
property: Activity (%)
Just the number please, in %, no unit attached.

CCCNC(=O)c1nc(C)c(C)nc1C(=O)Nc1cc(F)ccc1C 30

Would you mind telling me what Activity value was observed for CC[C@@H](C)NC(=O)c1nc(C)c(C)nc1C(=O)Nc1cc(F)ccc1C ?
30

----------
# System: Echinochloa crus-galli
# method: Herbicidal activity against Echinochloa crus-galli (barnyard grass) at 5000 g/ha after 2 weeks
# Assay type: functional
Here the recorded Activity is given for each entry.

# count of solved cases: 5
compound	Activity
CCNC(=O)c1nc(C)c(C)nc1C(=O)Nc1cc(F)ccc1C	<10%
Cc1ccc(Cl)cc1NC(=O)c1nc(C)c(C)nc1C(=O)NCCC(C)C	70%
CCCNC(=O)c1nc(C)c(C)nc1C(=O)Nc1cc(Cl)ccc1C	50%
Cc1ccc(Cl)cc1NC(=O)c1nc(C)c(C)nc1C(=O)NC(C)(C)C	70%
Cc1ccc(Cl)cc1NC(=O)c1nc(C)c(C)nc1C(=O)NC(C)C	70%

Would you mind telling me what Activity value was observed for Cc1ccc(F)cc1NC(=O)c1nc(C)c(C)nc1C(=O)NCC(C)C ?
30%

Try CC[C@@H](C)NC(=O)c1nc(C)c(C)nc1C(=O)Nc1cc(F)ccc1C next.
30%

Try CNC(=O)c1nc(C)c(C)nc1C(=O)Nc1cc(F)ccc1C next.
<10%

Try CCCCNC(=O)c1nc(C)c(C)nc1C(=O)Nc1cc(F)ccc1C next.
70%

Try CCCCCNC(=O)c1nc(C)c(C)nc1C(=O)Nc1cc(Cl)ccc1C next.
<10%

Try CCNC(=O)c1nc(C)c(C)nc1C(=O)Nc1cc(Cl)ccc1C next.
50%

Try CCCCNC(=O)c1nc(C)c(C)nc1C(=O)Nc1cc(Cl)ccc1C next.
50%

Try CCCNC(=O)c1nc(C)c(C)nc1C(=O)Nc1cc(F)ccc1C next.
30%

Try Cc1ccc(F)cc1NC(=O)c1nc(C)c(C)nc1C(=O)NC(C)(C)C next.
70%

Try CCC(C)NC(=O)c1nc(C)c(C)nc1C(=O)Nc1cc(F)ccc1C (racemic) next.
30%
